Cited source for all entries: paper PMC11591901

- assayed_system: Acetylcholinesterase from electric eel (eeAChE, type VI-S) (Electrophorus electricus, UniProt O42275)
- Sequence (O42275 24-633): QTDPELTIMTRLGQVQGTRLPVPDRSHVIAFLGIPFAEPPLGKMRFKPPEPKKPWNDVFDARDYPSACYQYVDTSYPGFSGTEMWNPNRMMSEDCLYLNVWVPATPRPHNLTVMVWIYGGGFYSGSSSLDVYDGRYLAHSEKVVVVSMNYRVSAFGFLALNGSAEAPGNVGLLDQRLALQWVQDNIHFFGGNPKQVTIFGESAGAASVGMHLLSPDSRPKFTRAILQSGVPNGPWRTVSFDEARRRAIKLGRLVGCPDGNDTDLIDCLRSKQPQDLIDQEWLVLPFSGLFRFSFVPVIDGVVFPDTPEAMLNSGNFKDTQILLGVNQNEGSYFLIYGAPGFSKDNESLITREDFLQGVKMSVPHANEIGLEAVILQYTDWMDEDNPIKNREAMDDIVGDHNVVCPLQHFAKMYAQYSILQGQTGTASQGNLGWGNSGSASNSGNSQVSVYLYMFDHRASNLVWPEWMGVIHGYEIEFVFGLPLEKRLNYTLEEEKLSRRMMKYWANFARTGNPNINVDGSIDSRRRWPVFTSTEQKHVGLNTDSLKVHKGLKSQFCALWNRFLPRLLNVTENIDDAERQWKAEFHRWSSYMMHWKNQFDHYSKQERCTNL
- assay_name: biochemical
- condition_notes: eeAChE, Ellman assay, triplicate
pIC50: −log10 of the molar value.
Reported values of pIC50 for individual entries

Take a look at these entries with their results.
{"columns": ["entry_smiles", "pIC50"],
 "data": [
  ["Cc1cc2c(ccc3nnn(Cc4ccc(Cl)cc4)c32)s1", "< 4.00"],
  ["Cc1cccc(Cn2nnc3ccc4sc(C)cc4c32)c1", "< 3.60"]
]}

Any idea what pIC50 was measured for Cc1ccc(Cn2nnc3ccc4sc(C)cc4c32)cc1 ? < 3.60
